procedure.text: Ex vivo biodistribution and tumor targeting
details: female, BALB/c nu/nu, mouse, pancreas, iv, 45 pmol per mouse, total radioactivity, Pancreas uptake, PC-3-xenografted BALB/c nu/nu mice, iv 25 kBq/45 pmol, 24 h pi, 4 mice per data point
value.type: tissue uptake at 24 h
Give the number first and the unit second.

Qu. Recorded tissue uptake at 24 h for `CC(C)C[C@H](NC(=O)C[C@H](O)[C@H](CC(C)C)NC(=O)[C@H](Cc1c[nH]cn1)NC(=O)CNC(=O)[C@@H](NC(=O)[C@H](C)NC(=O)[C@H](Cc1c[nH]c2ccccc12)NC(=O)[C@H](CCC(N)=O)NC(=O)[C@@H](Cc1ccccc1)NC(=O)COCCOCCNC(=O)CN1CCN(CC(=O)O)CCN(CC(=O)O)CC1)C(C)C)C(N)=O` , please?
Ans. 0.023 %ID/g

---

procedure.text: Ex vivo biodistribution and tumor targeting
details: female, BALB/c nu/nu, mouse, gastrointestinal tract with content (whole sample), iv, 45 pmol per mouse, total radioactivity
Reported tissue uptake dose at 3 h values are given for each entry in this list.
Numbers only; they are read as %ID.

Qu. Recorded tissue uptake dose at 3 h for CC(C)C[C@H](NC(=O)C[C@H](O)[C@H](CC(C)C)NC(=O)[C@H](Cc1c[nH]cn1)NC(=O)CNC(=O)[C@@H](NC(=O)[C@H](C)NC(=O)[C@H](Cc1c[nH]c2ccccc12)NC(=O)[C@H](CCC(N)=O)NC(=O)[C@@H](Cc1ccccc1)NC(=O)COCCOCCNC(=O)CCC(C(=O)O)N1CCN(CC(=O)O)CCN(CC(=O)O)CCN(CC(=O)O)CC1)C(C)C)C(N)=O (stereo partly shown) , please?
Ans. 1

Qu. Recorded tissue uptake dose at 3 h for `CC(C)C[C@H](NC(=O)C[C@H](O)[C@H](CC(C)C)NC(=O)[C@H](Cc1c[nH]cn1)NC(=O)CNC(=O)[C@@H](NC(=O)[C@H](C)NC(=O)[C@H](Cc1c[nH]c2ccccc12)NC(=O)[C@H](CCC(N)=O)NC(=O)[C@@H](Cc1ccccc1)NC(=O)COCCOCCNC(=O)CN1CCN(CC(=O)O)CCN(CC(=O)O)CCN(CC(=O)O)CC1)C(C)C)C(N)=O` , please?
Ans. 4.8

Qu. Recorded tissue uptake dose at 3 h for `CC(C)C[C@H](NC(=O)C[C@H](O)[C@H](CC(C)C)NC(=O)[C@H](Cc1c[nH]cn1)NC(=O)CNC(=O)[C@@H](NC(=O)[C@H](C)NC(=O)[C@H](Cc1c[nH]c2ccccc12)NC(=O)[C@H](CCC(N)=O)NC(=O)[C@@H](Cc1ccccc1)NC(=O)COCCOCCNC(=O)CN1CCN(CC(=O)O)CCN(CC(=O)O)CC1)C(C)C)C(N)=O` , please?
Ans. 0.6

Qu. Recorded tissue uptake dose at 3 h for CC(C)C[C@H](NC(=O)C[C@H](O)[C@H](CC(C)C)NC(=O)[C@H](Cc1c[nH]cn1)NC(=O)CNC(=O)[C@@H](NC(=O)[C@H](C)NC(=O)[C@H](Cc1c[nH]c2ccccc12)NC(=O)[C@H](CCC(N)=O)NC(=O)[C@@H](Cc1ccccc1)NC(=O)COCCOCCNC(=O)CCC(C(=O)O)N1CCN(CC(=O)O)CCN(CC(=O)O)CC1)C(C)C)C(N)=O (stereo partly shown) , please?
Ans. 5
